Test system: MALME-3M melanoma
Test: NCI tumour cell line growth inhibition, 48 h
reported-endpoint: TGI

Previously resolved entries follow.
O=C(O)c1cc(-c2ccc(-c3ccccc3)cc2)nc2cc3ccccc3cc12 = > 100 µM
NC(N)=NCCCC(Nc1c2ccccc2nc2ccccc12)C(=O)O (stereo not given) = > 100 µM
O=C1NC(=NCCc2ccccc2F)S/C1=C\c1ccc2ncccc2c1 = > 25 µM
CC(=O)Nn1c(Cc2ccc(Cl)cc2)nn(C)c1=O = > 100 µM

// field: TGI; key: Cc1ccc(S(=O)(=O)NC(=O)NC(CCCCN)C(=O)O)cc1 (stereo not given) ; value = > 100 µM

* * *

The entries below are paired with their reported TGI.
Tested on: 786-0 renal
Assay: NCI tumour cell line growth inhibition, 48 h

// below: answered compounds
CN1CC=C(C#CC(C)(C)O)CC1 = > 37.5 µM
O=c1nc(N2CCCCC2)sc2[nH]c3ccccc3c12 = > 100 µM
C#CC(O)/C=C/C(O)CCCC(O)CC#CC(O)C#CCCCCC(O)/C=C/CCCCCC(=O)CCCCCCCCCCCCCC(O)C(O)C#CC(=O)O (centres undefined) = > 25 µM
CCOC(=O)C1(C)C2=CC=C(O2)C(C)(C)C2=CC=C(O2)C(C)(C)C2=CC=C(O2)C(C)(C)C2=CC=C1O2 = > 100 µM
COc1ccc(N=Nc2c(-c3ccccc3)nn(C(=O)CC(=O)Nc3ccc(OC)cc3)c2-c2ccccc2)cc1 = > 100 µM
COc1c(CC(C)=O)c2ccccc2n1C(C)=O = > 100 µM
c1ccc(-c2sc(-c3ccccc3)c3c2C(c2ccccc2)c2c(-c4ccccc4)sc(-c4ccccc4)c2C3c2ccccc2)cc1 (centres undefined) = > 100 µM
Cc1cc(C(O)CCCc2ccccc2)cc(C)c1O (centres undefined) = > 100 µM

TGI recorded for this compound, O=C(O[C@H](/C=C/c1ccccc1)P1(=O)N(Cc2ccccc2)[C@H]2CCCC[C@@H]2N1Cc1ccccc1)c1ccccc1 , is > 100 µM

Form: compound = CC(C)(C)OC(=O)NC(Cc1ccc(OC(C)(C)C)cc1)C(=O)N[C@H]1CC[C@H](C(=O)O)C1 (some centres undefined) ; TGI = > 100 µM

Short answer for COC(=O)C(Cc1c(-c2[nH]c3ccccc3c2CC(NC(C)=O)C(=O)OC)[nH]c2ccccc12)NC(C)=O (centres undefined) : TGI was > 100 µM

TGI reading for COC(=O)c1ccccc1/C=C1\Cc2ccc3c(c2C1=O)CCC3 : > 100 µM

According to the records, this compound O=C(NNC1=NS(=O)(=O)c2ccccc2N1c1ccccc1)c1cnccn1 displays TGI of > 100 µM

The compound listed as CCCCN(CCCC)CC(C(=O)Nc1ccc([N+](=O)[O-])cc1[N+](=O)[O-])/C(C)=N\NC(=O)c1ccncc1 (centres undefined) shows TGI equal to > 100 µM

Entry O=c1[nH]c(-c2ccccc2)nc2cc([N+](=O)[O-])c(/C(Cl)=C/c3ccccc3)cc12 ; TGI = > 100 µM

// field: TGI; key: CC(=O)[CH-]C(=O)c1ccccc1.CC(=O)[CH-]C(=O)c1ccccc1.CC[C@H](CCC(C)[C@H]1CCC2[C@@H]3CC=C4C[C@@H]([O-])CC[C@]4(C)C3CC[C@@]21C)C(C)C.CC[C@H](CCC(C)[C@H]1CCC2[C@@H]3CC=C4C[C@@H]([O-])CC[C@]4(C)C3CC[C@@]21C)C(C)C.Cl.[Ti+4] (some centres undefined) ; value = > 25 µM

// recorded TGI for CCCN(CCCC(NC(C)=O)C(=O)NCc1ccccc1)C(=O)N(C)N=O (centres undefined) : > 100 µM

For this compound ( Nc1ncc(-c2ccc3ncnc(N4CCc5cc(F)c(Cl)cc54)c3c2)cc1C=O ), measured TGI is > 100 µM

In plain terms, C#CCC(O)c1ccc(OC)c(OCc2ccccc2)c1 (centres undefined) has a documented TGI of > 100 µM

* * *

Test system: A498 renal
Assay: NCI tumour cell line growth inhibition, 48 h
reported-endpoint: TGI

O=C(Cn1c2ccc(Br)cc2c2nc3ccccc3nc21)NNC(=O)NC1CCCCC1 = > 100 µM
O=C(O)CCC1C(=O)C2CCN1CC2 (stereo not given) = > 100 µM
COC(=O)CSc1cc(Cl)c(C)cc1S(=O)(=O)Nc1n[nH]c(N)n1 = > 10 µM

The compound identified as Cc1cccc2c(N)c3cccc(C(=O)NCCNCCN)c3nc12 registered its TGI at > 55.9 µM

TGI reading for [N-]=[N+]=NC1(Cc2ccccc2)C(=O)Nc2ccccc2C1=O (stereo not given) : > 100 µM

* * *

Test system: TK-10 renal
Experiment: NCI tumour cell line growth inhibition, 48 h
Quick list: TGI per entry.

O=C(O)CCC1C(=O)C2CCN1CC2 (centres undefined) = > 100 µM
CC1CN1c1c(C(=O)/C=C/c2ccc(F)cc2)c(-c2ccccc2)nn(C)c1=O (centres undefined) = 31 µM
COC(=O)C1=C(C)N(NC(N)=O)C2(N)N(NC(N)=O)C(C)=C(C(=O)OC)C12C#N (centres undefined) = > 100 µM
Cc1cc(NS(=O)(=O)c2ccc(NC(=O)c3cccc4c(Nc5ccc(S(=O)(=O)Nc6cc(C)on6)cc5)c5ccc(Cl)cc5nc34)cc2)no1 = > 100 µM
Cc1c(N)c(C#N)c2n(C)c3ncccc3n2c1=O = > 100 µM
COC(=O)CSc1cc(Cl)c(C)cc1S(=O)(=O)Nc1n[nH]c(N)n1 = > 10 µM
C=C1[C@@H](OC(C)=O)/C=C/C2C3C(=O)[C@@](C)(OC(C)=O)[C@H]([C@H](OC(C)=O)[C@]4(O)[C@@H](C)C(=O)O[C@H]4[C@H]1Cl)[C@@]23C (some centres undefined) = > 100 µM
Nc1nc2c(ncn2C2OC(CO)C(O)C2O)c(=O)o1 (centres undefined) = > 100 µM

The molecule listed as Cc1ccc(S(=O)(=O)NCCCSCCN)cc1 shows TGI equal to > 100 µM

TGI measured on CCOP(=O)(OCC)C(Cc1c[nH]c2ccccc12)C(=O)O (centres undefined) = > 100 µM

Note to self: TGI recorded for CC(=O)O[C@H]1[C@@H](OC2CCCC2(c2ccccc2)c2ccccc2)O[N+]([O-])=C[C@@H]1c1ccccc1 (some centres undefined) was 23.2 µM

Field TGI (entry O=C(Cc1csc2[n+]1C(=O)/C(=C/c1ccc(Cl)cc1)S2)Nc1ccccc1 ) reads 87.7 µM

Documented TGI of COc1ccc(CCn2ccc(C)n2)c(OC)c1 : > 100 µM

Entry COc1ccc(NCc2cccc3c(=O)c4ccc(Cl)cc4oc23)cc1 , TGI reported as > 100 µM

* * *

Tested on: SK-MEL-2 melanoma
Test: NCI tumour cell line growth inhibition, 48 h
compounds and their reported log10(TGI)
Please keep in mind that the values are log10 of TGI expressed in µM.

Please review the following examples before continuing.
NNC(=O)N/N=C(/CC1(O)C(=O)Nc2ccc(Br)cc21)c1ccccc1 (configuration not stated) = 1.93
C=C1C(=O)O[C@H]2C(=O)[C@H](C)CCC/C(C)=C/CC[C@@]3(C)O[C@@H]3C[C@@H]12 = 1.32
N#C/C(=C\c1ccc(O)c(O)c1)C(=O)NCc1cccc(C(F)(F)F)c1 = 0.47
O=[N+]([O-])c1ccc(C2=NOC(c3ccccc3)N2C23CC4CC(CC(C4)C2)C3)cc1 (configuration not stated) = 1.57
Nc1ccc(C2(c3ccc(N)cc3)C3CC4CC(C3)CC2C4)cc1 = 1.54

Just so you know, measured log10(TGI) for CCN(CC)Cc1cc(Nc2ccnc3ccc(OC)cc23)ccc1O came out at 0.74

Entry C=CCc1cc(OC)c(O)c(C(=O)/C=C/c2ccc(OC)c(OC)c2)c1 , log10(TGI) reported as 1.46

* * *

System: BT-549 breast
Assay: NCI tumour cell line growth inhibition, 48 h
Reported TGI values for a set of molecules

Study these solved cases before continuing.
C=CCc1cc(O)ccc1O = > 100 µM
NN/C(=N\S(=O)(=O)c1cc(S(=O)(=O)c2ccccc2)cs1)Nc1ccc(Cl)cc1 = > 100 µM
CN(C)CCNc1ncnc2nc(-c3ccccc3)c(-c3ccccc3)nc12 = > 100 µM

Here is another molecule to look at.
// recorded TGI for CN1CCC(=C(c2ccc(Cl)cc2)c2ccccn2)CC1 : > 100 µM

* * *

Quick reference: TGI of the listed items.
Tested on: SF-539 CNS
Assay: NCI tumour cell line growth inhibition, 48 h

COc1ccc(NCc2cccc3c(=O)c4ccc(Cl)cc4oc23)cc1 = > 100 µM
CN1CCN(CCCCCOc2cc(O)c3c(=O)cc(-c4ccccc4)oc3c2)CC1 = 7.87 µM
C#CCNCC(=O)O = > 100 µM

Memo: CC=C/C=C/[C@@H]1O[C@](O)([C@H](CC)C(=O)NC/C=C/C=C(\C)[C@@H](OC)[C@@H](C)[C@@H]2O[C@H](/C=C/C=C/C=C(\C)C(=O)c3c(O)cc[nH]c3=O)[C@H](O)[C@@H]2O)[C@H](O)[C@H](O)C1(C)C , reported TGI: > 100 µM

# TGI of NC(=O)NC(=O)Nc1ccc(Br)cc1 = > 100 µM

Notebook: COC1=CC(=O)C2=C(C1=O)[C@H]1CC[C@]3(C)C(=O)CC[C@H]3[C@@H]1CC2 , TGI read as 38.1 µM

Cited source: PubChem BioAssay (NCI)
